# experimental details: JC-1 mitochondrial signal, unstimulated HepG2 cells – cell-based, JC-1 fluorescence, 24 h, 100 nL compound, profiling panel (AID 1167); note: test concentration not given here
# measurement setup: HepG2 mitochondrial potential, higher = more signal
Decision: z-score >= -0.5 yields met, all other cases yield not met.

molecule	class
CCCCC(=C=CC[C@H](O)c1ccc(OCCO)cc1)CCO	not met
CC(C)[Si](C#CCCCC#N)(O[C@H](c1ccccc1)c1cn(Cc2ccccc2)nn1)C(C)C	met
CCCC=C(CCC)[C@@H](NP(=O)(c1ccccc1)c1ccccc1)c1ccc(-c2ccccc2)cc1	not met
COc1ccc(CCNC(=O)[C@@]2(Sc3ccc(C)cc3)CC(=O)N(Cc3ccccc3C(F)(F)F)[C@@H]2c2ccc(CO)cc2I)cc1	not met
C=CC[C@@]1(C(=O)NCCCOC)N=C(c2ccc(OCCCO)cc2)O[C@@H]1c1ccccc1	met

Prompt line: Test whether the molecule CC(C)C(CO)N1C(=O)[C@@H]2[C@H]3C(=O)OCC=C[C@H]3OC23C=CCN(c2ccc(Cl)cc2)C(=O)[C@@H]13 (stereo partly specified) records z-score of -0.5 or higher.
Response line: met

Prompt line: Test whether the molecule C=CC[C@@H](OC(=O)Nc1ccc(SC)cc1)c1ccc(O)c(F)c1 records z-score of -0.5 or higher.
Response line: not met
